Data provenance: patent US20200017592A1

target: T1, human IL-36R extracellular domain expressed with a C-terminal myc-myc-hexahistidine tag (hIL-36R-MMH) (human, UniProt Q9HB29 20-337); test: SPR Biacore T200, mAb captured on anti-hFc, 25C, PBS-T pH 6.0 running buffer
T1 construct: also called Human IL-36R-MMH; REGN2105
T1 sequence (Q9HB29 other isoform, or with tags, fused parts or gaps limits assumed): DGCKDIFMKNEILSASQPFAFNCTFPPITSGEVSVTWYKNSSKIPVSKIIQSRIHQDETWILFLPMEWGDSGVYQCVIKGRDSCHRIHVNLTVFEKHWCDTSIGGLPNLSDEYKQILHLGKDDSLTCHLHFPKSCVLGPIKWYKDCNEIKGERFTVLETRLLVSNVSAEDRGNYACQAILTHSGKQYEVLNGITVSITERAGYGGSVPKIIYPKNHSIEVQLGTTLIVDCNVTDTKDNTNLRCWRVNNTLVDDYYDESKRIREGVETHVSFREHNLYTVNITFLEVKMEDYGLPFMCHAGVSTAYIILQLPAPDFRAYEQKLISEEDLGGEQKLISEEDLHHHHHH
Note to self: koff under 0.002 s⁻¹ means met, ties and anything higher get not met.

# binder, assigned.label
measured = [
    ("H4H14731P (antibody, human IgG4 S228P, kappa, V domains shown, Fully human anti-IL-36R antibody) VH: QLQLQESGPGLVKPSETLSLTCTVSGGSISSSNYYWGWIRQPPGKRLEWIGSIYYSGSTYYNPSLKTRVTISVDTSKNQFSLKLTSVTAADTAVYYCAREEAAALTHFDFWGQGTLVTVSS VL: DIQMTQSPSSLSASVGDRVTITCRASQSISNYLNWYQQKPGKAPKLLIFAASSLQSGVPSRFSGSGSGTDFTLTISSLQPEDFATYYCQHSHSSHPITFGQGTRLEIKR", "met"),
    ("H4H14708P2 (antibody, human IgG4 S228P, kappa, V domains shown, Fully human anti-IL-36R antibody) VH: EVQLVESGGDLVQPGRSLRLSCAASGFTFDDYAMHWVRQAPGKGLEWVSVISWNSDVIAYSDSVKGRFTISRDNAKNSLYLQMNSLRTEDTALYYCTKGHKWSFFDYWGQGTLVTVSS VL: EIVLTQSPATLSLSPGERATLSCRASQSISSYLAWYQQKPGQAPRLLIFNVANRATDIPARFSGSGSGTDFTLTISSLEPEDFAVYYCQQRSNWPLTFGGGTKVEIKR", "met"),
    ("H4H14706P2 (antibody, human IgG4 S228P, kappa, V domains shown, Fully human anti-IL-36R antibody) VH: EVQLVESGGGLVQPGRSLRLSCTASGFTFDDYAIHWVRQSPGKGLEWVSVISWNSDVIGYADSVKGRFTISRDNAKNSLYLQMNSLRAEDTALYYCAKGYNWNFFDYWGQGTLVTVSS VL: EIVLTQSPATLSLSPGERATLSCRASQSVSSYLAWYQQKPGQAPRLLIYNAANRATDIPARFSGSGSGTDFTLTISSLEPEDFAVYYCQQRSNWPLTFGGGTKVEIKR", "met"),
    ("H4H14758P (antibody, human IgG4 S228P, kappa, V domains shown, Fully human anti-IL-36R antibody) VH: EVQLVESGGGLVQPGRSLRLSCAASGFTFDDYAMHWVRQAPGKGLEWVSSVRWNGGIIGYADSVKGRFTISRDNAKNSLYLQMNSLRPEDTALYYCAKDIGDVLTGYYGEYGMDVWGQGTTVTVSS VL: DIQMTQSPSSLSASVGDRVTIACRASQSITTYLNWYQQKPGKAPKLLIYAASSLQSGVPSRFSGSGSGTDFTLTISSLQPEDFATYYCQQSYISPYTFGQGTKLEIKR", "met"),
    ("H4H14709P (antibody, human IgG4 S228P, kappa, V domains shown, Fully human anti-IL-36R antibody) VH: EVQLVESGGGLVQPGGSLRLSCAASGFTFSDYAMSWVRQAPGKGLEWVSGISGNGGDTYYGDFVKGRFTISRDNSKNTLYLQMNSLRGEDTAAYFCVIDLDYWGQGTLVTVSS VL: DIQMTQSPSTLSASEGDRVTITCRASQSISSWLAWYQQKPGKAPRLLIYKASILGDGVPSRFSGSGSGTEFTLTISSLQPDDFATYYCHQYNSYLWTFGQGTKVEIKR", "met"),
    ("H4H14699P2 (antibody, human IgG4 S228P, kappa, V domains shown, Fully human anti-IL-36R antibody) VH: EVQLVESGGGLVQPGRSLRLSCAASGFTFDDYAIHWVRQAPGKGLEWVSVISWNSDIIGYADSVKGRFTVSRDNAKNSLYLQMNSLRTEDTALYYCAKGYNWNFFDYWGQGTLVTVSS VL: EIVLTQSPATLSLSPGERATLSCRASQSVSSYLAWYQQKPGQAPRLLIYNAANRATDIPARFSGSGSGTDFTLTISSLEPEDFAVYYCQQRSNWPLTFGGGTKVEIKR", "not met"),
]
